B1: FAM116A (parent)
chain: TVHEVDIFRCFCPVFLHSQMLWEL

- Variants of: B1
- protocolDescription: protein stability index of a GFP-peptide fusion (GPS, HEK-293T) (PSI 1-6); higher = more stable;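 note: lentivirally expressed fusions sorted by FACS into six bins by GFP to DsRed ratio, PSI derived from sequencing read proportions per bin multiplied by bin number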
- measurementParameters: c terminus: a fixed tail appended
Listing of recorded protein stability index by entry.
measurementKind: protein stability index

{"columns": ["variantLabel", "result"],
 "data": [
  ["W22R", 3.65],
  ["P13I", 3.13],
  ["V2C", 2.57],
  ["V2M", 2.05],
  ["T1Q", 3.46],
  ["C10S", 2.89],
  ["C10H", 4.15],
  ["D6P", 1.7],
  ["T1R", 3.09],
  ["F11C", 2.65],
  ["S18N", 2.99],
  ["V14K", 2.41],
  ["I7T", 2.49],
  ["L16G", 2.97],
  ["M20N", 3.79],
  ["S18D", 2.15],
  ["H17S", 3.21],
  ["C10K", 2.63],
  ["F8W", 3.88],
  ["C10V", 2.69],
  ["Q19W", 2.73],
  ["L21C", 3.04],
  ["E4D", 1.46],
  ["P13N", 1.5],
  ["R9E", 4.78],
  ["R9H", 2.19],
  ["M20K", 1.68],
  ["M20Q", 2.97],
  ["S18W", 2.85],
  ["V2R", 3.97],
  ["V2Q", 2.08],
  ["E23L", 3.65],
  ["C12R", 3.5],
  ["D6Q", 2.07],
  ["C12I", 2.54],
  ["F8M", 3.18],
  ["H17R", 2.65],
  ["T1P", 1.67],
  ["V14Y", 1.89],
  ["L24W", 1.83],
  ["L16N", 3.13],
  ["F8K", 2.31],
  ["P13A", 2.36],
  ["F8G", 1.07],
  ["F15Y", 3.31],
  ["E4H", 3.03],
  ["V5N", 1.84],
  ["L16R", 3.17],
  ["Q19P", 4.4],
  ["F8P", 2.36],
  ["V5T", 3.3],
  ["L24P", 1.69],
  ["L21R", 1.77],
  ["M20I", 3.16],
  ["W22K", 1.13],
  ["E23R", 1.77],
  ["F8R", 1.45],
  ["W22M", 3.69],
  ["T1M", 1.98],
  ["T1D", 4.17],
  ["M20V", 2.62],
  ["F15D", 1.44],
  ["V14G", 3.26],
  ["E4I", 3.19],
  ["W22F", 2.22],
  ["D6H", 2.23],
  ["I7G", 3.26],
  ["E4R", 3.14],
  ["E4Y", 3.35],
  ["C12F", 2.77],
  ["F11G", 2.22],
  ["V2Y", 3.92],
  ["F15H", 2.83],
  ["F15V", 1.94],
  ["E4T", 3.43],
  ["F11K", 2.82],
  ["D6A", 4.47],
  ["H17P", 2.86],
  ["M20Y", 3.21],
  ["M20P", 1.4],
  ["T1H", 3.11],
  ["I7Y", 3.48],
  ["Q19T", 1.66],
  ["T1L", 1.68],
  ["L16P", 2.89]
]}
